molecular target: HLA-A2 MHC-I (HLA-A*0204, affinity purified from the EBV transformed cell line RML) (human)
Kd values for the binders below.
Output spec: scalar in nM, unitless text.

Answered cases to consult:
| binder | reportedMetric | unitSpec | measuredResult |
| --- | --- | --- | --- |
| YIKIFIMIV (modifications not checked) [8.93nat] | Kd | nM | 24 |
| LQLPPIERL (modifications not checked) [8.14nat] | Kd | nM | 7.3 |
| ALGIIQAQ (modifications not checked) [8.116nat] | Kd | nM | 97 |
| AIEAQQHLL (modifications not checked) [8.88nat] | Kd | nM | 850 |
| GMGSPQILV (modifications not checked) [8.15natM (4.40)] | Kd | nM | 120 |
| VVAAIIAIV (modifications not checked) [8.1nat] | Kd | nM | 260 |
| LCFGWCFKL (modifications not checked) [8.45natC] | Kd | nM | 580 |
| ALVEMGHHA (modifications not checked) [8.3nat] | Kd | nM | 160 |

Req: Can you look up the measured Kd of RLAFHHMAR (modifications not checked) [8.47nat] for me?
Resp: 670

Where these numbers come from: patent US20040072162A1
